Hey, just so you know, these numbers are from paper PMC7954794.

Test system: Abp1 PPIs
Test: DHFR-PCA of Abp1 SH3-swapped baits (Fig. 2B-D, S2C, S2F)
Assay type: cell-based, Saccharomyces cerevisiae
Conditions: distance to Abp1 bait with CDC25 SH3; sheet Fig2C
Quick reference for Protein-protein interaction distance between Abp1 SH3-swapped baits, to CDC25 among some molecules
Reply with just the number.

# annotated cases, reported Protein-protein interaction distance between Abp1 SH3-swapped baits, to CDC25 shown
molecule="PEX13 (protein, UniProt P80667 1-386, looked up) Peroxisomal membrane protein …: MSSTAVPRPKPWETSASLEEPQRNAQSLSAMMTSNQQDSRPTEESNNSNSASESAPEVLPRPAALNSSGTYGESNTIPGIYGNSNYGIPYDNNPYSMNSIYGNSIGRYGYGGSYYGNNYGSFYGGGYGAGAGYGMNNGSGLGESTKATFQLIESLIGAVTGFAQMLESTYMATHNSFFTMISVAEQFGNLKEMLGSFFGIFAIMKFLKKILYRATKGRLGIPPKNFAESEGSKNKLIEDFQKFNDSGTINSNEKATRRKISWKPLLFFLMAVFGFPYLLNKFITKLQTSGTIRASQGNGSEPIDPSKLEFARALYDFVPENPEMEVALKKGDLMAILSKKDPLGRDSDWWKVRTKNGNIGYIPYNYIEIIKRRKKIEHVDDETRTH" observed_measurement=29.16
molecule="SHO1 (protein, UniProt P40073 1-367, looked up) High osmolarity signaling …: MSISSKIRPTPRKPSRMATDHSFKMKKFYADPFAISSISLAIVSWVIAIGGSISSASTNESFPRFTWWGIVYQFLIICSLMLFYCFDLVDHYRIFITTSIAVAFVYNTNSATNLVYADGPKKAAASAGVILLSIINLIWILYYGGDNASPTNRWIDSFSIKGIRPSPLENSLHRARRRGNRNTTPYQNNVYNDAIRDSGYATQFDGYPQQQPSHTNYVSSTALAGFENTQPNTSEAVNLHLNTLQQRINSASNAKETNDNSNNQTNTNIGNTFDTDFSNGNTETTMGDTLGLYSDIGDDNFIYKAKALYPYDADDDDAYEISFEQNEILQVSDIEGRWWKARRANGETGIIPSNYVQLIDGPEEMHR" observed_measurement=24.02
molecule="PIN3 (protein, UniProt Q06449 2-215, looked up) [PSI+] inducibility protein 3: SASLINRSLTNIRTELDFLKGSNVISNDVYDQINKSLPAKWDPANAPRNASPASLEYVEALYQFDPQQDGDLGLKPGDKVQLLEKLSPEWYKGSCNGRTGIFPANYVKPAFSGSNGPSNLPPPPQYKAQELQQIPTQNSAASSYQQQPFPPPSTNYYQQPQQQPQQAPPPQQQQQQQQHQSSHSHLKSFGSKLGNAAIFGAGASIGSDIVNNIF" observed_measurement=28.09

Switching to the query record.
Supply reported Protein-protein interaction distance between Abp1 SH3-swapped baits, to CDC25 belonging to this molecule: LSB1 (protein, UniProt P53281 2-241, looked up) LAS seventeen-binding protein …: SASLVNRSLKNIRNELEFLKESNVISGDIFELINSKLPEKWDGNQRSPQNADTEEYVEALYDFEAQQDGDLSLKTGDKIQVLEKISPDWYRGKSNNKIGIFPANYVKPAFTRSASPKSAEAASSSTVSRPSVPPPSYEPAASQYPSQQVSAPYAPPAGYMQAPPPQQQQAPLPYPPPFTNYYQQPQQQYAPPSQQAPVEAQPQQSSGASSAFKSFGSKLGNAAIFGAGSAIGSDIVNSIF
30.85
